All figures here come from ChEMBL document CHEMBL1138847.

Reported EC50 values follow for various molecules
- Tested on: MT4
- measurement-protocol: Effective dose of compound required to inhibit replication of human immunodeficiency virus type 1 in MT-4 cells
- Assay type: functional
- experimental-parameters: read-out: ED50 (the source's name)

{"molecule": "CC(C)[C@H](C)C(=O)NC(=O)[C@H](O)[C@H](O)[C@@H](O)[C@@H](Oc1ccccc1)C(=O)NC(=O)[C@@H](C)C(C)C", "operator-symbol": "=", "EC50, nM": 1320}
{"molecule": "CC(C)(C)NC(=O)[C@@H]1CN(Cc2cccnc2)CCN1C[C@@H](O)C[C@@H](Cc1ccccc1)C(=O)N[C@H]1c2ccccc2C[C@H]1O", "operator-symbol": "=", "EC50, nM": 50}
{"molecule": "C[C@@H](Cc1ccc(O)cc1)C(=O)NC(=O)[C@H](O)[C@H](O)[C@@H](O)[C@@H](Oc1ccccc1)C(=O)NC(=O)[C@@H](C)Cc1ccc(O)cc1", "operator-symbol": ">", "EC50, nM": 67000}
{"molecule": "CC(C)c1nc(CN(C)C(=O)N[C@H](C(=O)N[C@@H](Cc2ccccc2)C[C@H](O)[C@H](Cc2ccccc2)NC(=O)OCc2cncs2)C(C)C)cs1", "operator-symbol": "=", "EC50, nM": 50}
{"molecule": "CC(C)[C@H](C)C(=O)NC(=O)[C@H](O)[C@H](O)[C@@H](O)[C@@H](Oc1ccc(-c2cccc([N+](=O)[O-])c2)cc1)C(=O)NC(=O)[C@@H](C)C(C)C", "operator-symbol": "=", "EC50, nM": 160}
{"molecule": "O=C(NC1c2ccccc2C[C@H]1O)[C@H](O)C[C@@H](O)[C@@H](Oc1ccccc1)C(=O)NC1c2ccccc2C[C@@H]1O (stereo partly specified)", "operator-symbol": "=", "EC50, nM": 1440}
